Reference source for all entries: ChEMBL document CHEMBL1201862

System: HCT-15
measurement protocol: NCI tumour cell line growth inhibition, 48 h
Exercise: state measured GI50 for each of the compounds provided.

// query GI50 value for entry CCOC(=O)CCC(NC(=O)c1ccc(Oc2nc3ccccc3nc2-c2ccccc2)cc1)C(=O)OCC (stereo not given)
> 100 µM

// query GI50 value for entry O=C1C=C(N2CCCC2)C=C(N2CCCC2)C1
> 100 µM

// query GI50 value for entry COc1cc(C2SC(=N)Nc3c2c(C)nn3C(=O)Cc2ccccc2)ccc1O (stereo not given)
> 100 µM

// query GI50 value for entry COc1ccc(CCNC(=O)Cc2ccccc2CO)cc1OC
> 100 µM

// query GI50 value for entry COC(=O)CC1CCN(C#N)CC1CC[N+](=O)[O-] (stereo not given)
> 100 µM

// query GI50 value for entry O=Cc1c(O)c(C(=O)Nc2ccc3[nH]c(=O)[nH]c3c2)cc2ccccc12
> 100 µM

// query GI50 value for entry COc1ccc2c(c1)c1nn(CCN3CCCCC3)c3ccc4c(=O)n(CCN(C)C)c(=O)n2c4c13
< 0.01 µM

// query GI50 value for entry O=C1/C(=C/c2ccc(Cl)cc2)CSc2ccccc21
4.62 µM

// query GI50 value for entry C[N+](C)=c1nc(N2CCOCC2)ss1
> 100 µM

// query GI50 value for entry N=C(N)N/N=C/c1oc(-c2ccc(S(=O)(=O)O)o2)c(-c2ccc(S(=O)(=O)O)o2)c1[N+](=O)[O-]
> 100 µM

---

Exercise: state measured GI50 for each of the molecules provided.
Tested on: SNB-78
measurement protocol: NCI tumour cell line growth inhibition, 48 h
The source made the active and inactive calls. No stated cut-off is given here; in the data, active = GI50 up to about 1.1 µM and inactive = higher.

// query GI50 value for entry Nc1ccc(S(=O)(=O)Nc2ccc(Nc3c4ccccc4nc4ccccc34)cc2)cc1
3.78 µM (inactive)

// query GI50 value for entry CCOC(=O)c1ccc(N[C@@H]2c3cc4c(cc3C(C3=CC(=O)C(=O)C(OC)=C3)[C@H]3C(=O)OCC32)OCO4)cc1 (some centres undefined)
8.69 µM (inactive)

// query GI50 value for entry O=c1c2ccccc2c2c3c1cccc3c1cccc3c(=O)c4ccccc4c2c31
> 100 µM (inactive)

// query GI50 value for entry CCCCn1c(-c2ccccc2)cs/c1=N\NC(=O)Cn1c(C)nc2ccccc21
> 100 µM (inactive)

// query GI50 value for entry COc1cc(Oc2c(O)c(C)c(OC)c(C(C)=O)c2O)c(C(C)=O)c(O)c1C
> 100 µM (inactive)

// query GI50 value for entry Cc1ccccc1C(=O)N1CCN(C(=O)c2ccccc2C)CC1
> 100 µM (inactive)

// query GI50 value for entry CCOC(=O)C(=O)Nc1c(C)cccc1C(C)(C)C
> 100 µM (inactive)

// query GI50 value for entry O=Cc1c(O)c(C(=O)Nc2ccc3[nH]c(=O)[nH]c3c2)cc2ccccc12
> 100 µM (inactive)

// query GI50 value for entry CC(=O)Oc1c(-c2ccccc2)[nH]c2cc([N+](=O)[O-])c(/C(Cl)=C/c3ccccc3)cc12
3.85 µM (inactive)

// query GI50 value for entry Cc1ccccc1C(=O)Oc1ccc(OCc2ccccc2)cc1
> 100 µM (inactive)

// query GI50 value for entry O=C(CC/C(CC(=O)c1ccc(Cl)cc1)=N/O)Nc1ccc(Cl)c(Cl)c1
> 100 µM (inactive)

// query GI50 value for entry CC/C=C1\N=C(c2ccc(Cl)cc2)OC1=O
> 100 µM (inactive)

// query GI50 value for entry CCOC(=O)c1cccc(=O)c(C(=O)OCC)c1
57.3 µM (inactive)

// query GI50 value for entry CO[C@H]1ON=C(c2c(C)cc(C)cc2C)[C@@H]1C1(c2ccccc2)ON=C(c2c(C)cc(C)cc2C)O1 (some centres undefined)
> 100 µM (inactive)

// query GI50 value for entry N/C(=N\O)N/N=C/c1ccc(C(F)(F)F)cc1
39.4 µM (inactive)

// query GI50 value for entry O=C1C=C(N2CCCC2)C=C(N2CCCC2)C1
> 100 µM (inactive)

// query GI50 value for entry O=Cc1cn(S(=O)(=O)c2ccccc2)c2ccccc12
41.3 µM (inactive)

// query GI50 value for entry O=C(Nc1cccc2ccccc12)Oc1ccccc1C1CCCCC1
23.4 µM (inactive)

// query GI50 value for entry O=C(/C=C/c1c(O)ccc2ccccc12)c1ccc([N+](=O)[O-])cc1
21.6 µM (inactive)

---

Tested on: SF-295
measurement protocol: NCI tumour cell line growth inhibition, 48 h
Calls of active or inactive are those of the source. Rule as the data show it: active = GI50 up to about 1.1 µM and inactive = higher.
value type: GI50

Identify the measured GI50 of C=C1C(=O)OC2CCCCC3OC3C12 (stereo unspecified) for SF-295.
23.2 µM (inactive)

Identify the measured GI50 of CC#COS(=O)(=O)c1ccc(C)cc1 for SF-295.
> 100 µM (inactive)

Identify the measured GI50 of CC(C)(C)OC(=O)NC1CCC[C@H]1O (stereo partly specified) for SF-295.
> 100 µM (inactive)

Identify the measured GI50 of COc1cc2c(cc1OC)CN1CCCc3cc(OC)c(OC)cc3C1C2 (stereo unspecified) for SF-295.
12.9 µM (inactive)

Identify the measured GI50 of O=C1CSC(=S)N1c1ccc(F)cc1F for SF-295.
44.8 µM (inactive)

Identify the measured GI50 of C=C[C@H]1CC[C@H]2[C@@H]3CC=C4C[C@@H](OC5OCC(O)C(O)C5O)CC[C@]4(C)[C@H]3CC[C@]12C (stereo partly specified) for SF-295.
15.2 µM (inactive)

---

Tested on: IGROV-1
measurement protocol: NCI tumour cell line growth inhibition, 48 h
Active and inactive are the calls of the source. Rule as the data show it: active = GI50 up to about 1.1 µM and inactive = higher.
Exercise: state measured GI50 for each of the molecules provided.

Identify the measured GI50 of COC(=O)[C@@]12CN(C)[C@@H](C(C)(C)C)N1C(=O)OC2c1ccccc1 (some centres not stated) for IGROV-1.
> 100 µM (inactive)

Identify the measured GI50 of O=C1OC(c2ccccc2)(c2ccccc2)CC1CN1CCOCC1 (configuration not stated) for IGROV-1.
> 100 µM (inactive)

Identify the measured GI50 of CC(C)(C)OC(=O)C1C(=O)NC(=O)CC1C(OCc1ccccc1)C(OCc1ccccc1)C(COCc1ccccc1)OCc1ccccc1 (configuration not stated) for IGROV-1.
> 100 µM (inactive)

Identify the measured GI50 of O=C1C2=Nc3ccccc3C(O)N2c2ccccc21 (configuration not stated) for IGROV-1.
40.2 µM (inactive)

Identify the measured GI50 of O=S1(=O)c2ccccc2-c2nccc3ccnc1c23 for IGROV-1.
7.67 µM (inactive)

Identify the measured GI50 of CCOC(=O)C1=C(C)N(Cc2ccccc2)C2(O)C=CC(=O)C3C(=O)N(c4ccccc4)C(=O)C132 (configuration not stated) for IGROV-1.
2 µM (inactive)

Identify the measured GI50 of CC(C)c1c(O[Si](C(C)C)(C(C)C)C(C)C)cc2c(c1O)CC[C@H]1C(C)(C)CCC[C@]21C for IGROV-1.
> 100 µM (inactive)

Identify the measured GI50 of Cc1ccc(C)c2c1CCc1cc3ccccc3nc1-2 for IGROV-1.
> 100 µM (inactive)

Identify the measured GI50 of c1ccc(C2SCc3nc4ccccc4n32)cc1 (configuration not stated) for IGROV-1.
29.2 µM (inactive)

Identify the measured GI50 of CNC(=O)C1OC(n2cnc3c(NCc4cccc(I)c4)nc(Cl)nc32)C(O)C1O (configuration not stated) for IGROV-1.
14.1 µM (inactive)

Identify the measured GI50 of Cc1ccc(C2SC(=N)Nc3c2c(C)nn3C(=O)c2ccc(Cl)cc2)cc1 (configuration not stated) for IGROV-1.
> 10 µM (inactive)

Identify the measured GI50 of Cc1nc2c(sc(=S)n2-c2ccccc2)c2nc3ccccc3n12 for IGROV-1.
> 100 µM (inactive)

Identify the measured GI50 of CCOC(=O)C(C(=O)OCC)C(NC(=O)Nc1cc(C(F)(F)F)ccc1OC)(C(F)(F)F)C(F)(F)F for IGROV-1.
25.4 µM (inactive)

Identify the measured GI50 of COC1OC(CO)C(O)C(O)C1Br (configuration not stated) for IGROV-1.
> 100 µM (inactive)

Identify the measured GI50 of C=CC(C)(O)/C=C/C=C(\C)C(CC1OC1(C)C)OC(=O)/C(C)=C\C (configuration not stated) for IGROV-1.
> 100 µM (inactive)

Identify the measured GI50 of COc1cc(-c2[o+]c3cc(O)cc(O)c3cc2O)cc(O)c1O for IGROV-1.
> 100 µM (inactive)

Identify the measured GI50 of Cc1cccc(NC2=NC(=O)C(CC(=O)Nc3cccc(C)c3C)S2)c1 (configuration not stated) for IGROV-1.
> 100 µM (inactive)

Identify the measured GI50 of Cc1cccc(CNNC(=O)c2cc[n+]([BH2-]C#N)cc2)c1 for IGROV-1.
22 µM (inactive)

Identify the measured GI50 of CC1(C)CC(=O)C2=C(C1)NC1=C(C2)C(=O)CC(C)(C)C1 for IGROV-1.
> 100 µM (inactive)

Identify the measured GI50 of Cc1nnc2n(c1=O)CCN2C for IGROV-1.
> 100 µM (inactive)

Identify the measured GI50 of COc1ccc(N2C(=O)c3cccnc3S2(=O)=O)cc1 for IGROV-1.
> 100 µM (inactive)

Identify the measured GI50 of Cc1c(C)c2c(c(N)c1C#N)C(=O)N(N)C2=O for IGROV-1.
> 100 µM (inactive)
